# Assayed Target: T1, Monkey RhPD1-HSA fusion protein (monkey)
# T1 construct: also called monkey PD-1
# Assay Notes: ELISA, RhPD1-HSA coated 200 ng/well, VHH 1 µg/mL, anti-his detection
# Protocol: Monkey RhPD1-HSA fusion protein (SEQ ID No. 30) was coated on plates at 200 ng/well overnight at 4° C. and blocked with 5% skim milk at room temperature for 1 hour. Purified histidine-tagged anti-PD1 single-domain antibody was diluted to 1 μg/mL and incubated at 37° C. for 1 hour with 100 μL per well. […] After washing with PBST, TMB color developing solution was added for color development and OD value was measured at 450 nm.
Value Kind: OD450 nm (OD450 nm)

[[record]]
binder = "anti-PD-1 single-domain antibody clone 1H1, histidine-tagged, from E. coli (VHH, Alpaca VHH expressed in E. coli Rosetta (DE3) from pET32a+, purified on a Ni column; not shown: C-terminal histidine tag) VHH: QVQLVESGGGLVQPGGSLNLSCVASGSVFIIDVMAWYRQAPGKQRELVAQIINGGASYYADSVKGRFTISRDNTKTTLFLQMNSLKPADTAVYYCNAEKFNPYRDSTNFWGQGTQVTVSS"
value_kind = "OD450 nm"
result_number = 2.02

[[record]]
binder = "anti-PD-1 single-domain antibody clone 1A4, histidine-tagged, from E. coli (VHH, Alpaca VHH expressed in E. coli Rosetta (DE3) from pET32a+, purified on a Ni column; not shown: C-terminal histidine tag) VHH: QVQLVESGGGLVQPGGSLNLSCVASGNVFIIDVMAWYRQAPGKQRELVAQIINGDAKYYVDSVKGRFTISRDNTKTTLYLQMNSLKPDDTAIYYCSAEKFNPYRDSTNFWGQGTQVTVSS"
value_kind = "OD450 nm"
result_number = 2

[[record]]
binder = "anti-PD-1 single-domain antibody clone 2C4, histidine-tagged, from E. coli (VHH, Alpaca VHH expressed in E. coli Rosetta (DE3) from pET32a+, purified on a Ni column; not shown: C-terminal histidine tag) VHH: QVQLVESGGGLVRPGGSLRLSCAASGSVFIIDVMAWYRQAPGKQRELVAQIISGDHAYYADSVKGRFTISRDDTKTTLYLQMNSLKPDDTAVYYCSAEKFNPYRDSTYFWGQGTQVTVSS"
value_kind = "OD450 nm"
result_number = 2.03

[[record]]
binder = "anti-PD-1 single-domain antibody clone 1A9, histidine-tagged, from E. coli (VHH, Alpaca VHH expressed in E. coli Rosetta (DE3) from pET32a+, purified on a Ni column; not shown: C-terminal histidine tag) VHH: QVQLVESGGGLVQPGGSLNLSCVASGNVFIIDVMAWYRQAPGKQRELVAQIINGGATYYADSVKGRFTISRDDTKTTLNLQMNSLKPDDTAVYYCSAEKFNPYRDSTHFWGQGTQVTVSA"
value_kind = "OD450 nm"
result_number = 2.02

[[record]]
binder = "anti-PD-1 single-domain antibody clone 2D9, histidine-tagged, from E. coli (VHH, Alpaca VHH expressed in E. coli Rosetta (DE3) from pET32a+, purified on a Ni column; not shown: C-terminal histidine tag) VHH: QVQLVESGGGLVQPGGSLRLSCAASGSVFIIDVMAWYRQAPGKQRELVAQIINGDAKYYADSVKGRFTISRDNTKTTLYLQMNSLKPDDTAVYYCSAEQFNPYRDSTYFWGQGTQVTVSS"
value_kind = "OD450 nm"
result_number = 2.1

[[record]]
binder = "anti-PD-1 single-domain antibody clone 1D3, histidine-tagged, from E. coli (VHH, Alpaca VHH expressed in E. coli Rosetta (DE3) from pET32a+, purified on a Ni column; not shown: C-terminal histidine tag) VHH: QVQLVESGGGLVQPGGSLNLSCVASGSVFIIDVMAWYRQAPGKQRELVAQIINGGATYYADSVKGRFTISRDDTKTTLYLQMNSLKPDDTAVYYCSAEKFNPYRDSTHFWGQGTQVTVSS"
value_kind = "OD450 nm"
result_number = 2.1

